Provenance of the data: patent US11981658B2

Target: EGFR L858R/C797S (Homo sapiens, UniProt P00533, C797S/L858R)
Sequence (P00533 25-1210 C797S/L858R): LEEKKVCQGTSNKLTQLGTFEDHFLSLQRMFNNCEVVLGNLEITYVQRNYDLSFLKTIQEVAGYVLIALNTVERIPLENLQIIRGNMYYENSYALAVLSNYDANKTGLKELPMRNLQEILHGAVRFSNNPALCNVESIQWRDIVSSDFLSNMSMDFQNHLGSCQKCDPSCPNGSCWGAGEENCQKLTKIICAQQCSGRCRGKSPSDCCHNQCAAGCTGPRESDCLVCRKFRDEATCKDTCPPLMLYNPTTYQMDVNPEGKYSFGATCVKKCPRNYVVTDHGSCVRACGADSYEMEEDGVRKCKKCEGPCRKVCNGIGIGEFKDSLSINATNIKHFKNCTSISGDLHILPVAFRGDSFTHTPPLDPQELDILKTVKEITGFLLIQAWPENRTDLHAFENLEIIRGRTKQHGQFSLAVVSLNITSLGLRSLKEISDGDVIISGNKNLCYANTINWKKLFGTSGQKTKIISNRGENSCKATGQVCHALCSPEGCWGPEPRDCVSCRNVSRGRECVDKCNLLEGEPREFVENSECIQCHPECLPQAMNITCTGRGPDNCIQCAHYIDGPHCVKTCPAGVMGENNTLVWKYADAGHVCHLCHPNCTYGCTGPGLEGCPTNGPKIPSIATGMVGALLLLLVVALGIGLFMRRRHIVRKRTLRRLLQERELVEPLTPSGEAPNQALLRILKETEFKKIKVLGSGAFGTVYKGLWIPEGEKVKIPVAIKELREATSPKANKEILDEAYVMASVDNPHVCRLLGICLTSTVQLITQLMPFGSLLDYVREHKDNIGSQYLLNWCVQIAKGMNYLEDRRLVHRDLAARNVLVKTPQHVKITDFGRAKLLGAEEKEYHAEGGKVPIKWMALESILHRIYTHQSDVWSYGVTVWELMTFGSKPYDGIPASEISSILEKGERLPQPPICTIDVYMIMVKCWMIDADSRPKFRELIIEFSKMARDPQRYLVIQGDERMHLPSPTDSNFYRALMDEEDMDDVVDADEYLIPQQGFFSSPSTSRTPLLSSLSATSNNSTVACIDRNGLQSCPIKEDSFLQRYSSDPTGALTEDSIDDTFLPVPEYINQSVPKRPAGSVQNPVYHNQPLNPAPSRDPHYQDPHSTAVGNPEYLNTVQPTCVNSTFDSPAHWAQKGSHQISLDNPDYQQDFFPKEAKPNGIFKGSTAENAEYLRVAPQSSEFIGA
Assay: Biochemical EGFR kinase inhibition assay (Lance Ultra TR-FRET), double mutant L858R/C797S
Details: Km ATP; read-out: IC50 L858R/C797S (nM) Km ATP
Measured Endpoint: IC50 (nM)

> print(dat)
                                   compound  measured.endpoint  observed.value
1  COC1CCN(c2cc(Nc3ccnc(-c4cnn(S(=O)(=O)C5CC5)c4)n3)ncc2C#Cc2cnn(C3CCN(C(C)=O)CC3)c2)CC1               IC50             2.6
2  COC1CCN(c2cc(Nc3ccnc(-c4cnn(S(=O)(=O)C5CC5)c4)n3)ncc2C#Cc2cnn(C3CCOCC3)c2)CC1               IC50             7.5
3  CC(=O)N1CCC(n2cc(C#Cc3cnc(Nc4ccnc(-c5cnn(S(=O)(=O)C6CC6)c5)n4)cc3N3CCCC(O)C3)cn2)CC1 (stereo not drawn)               IC50             2.6

###

Target: EGFR wildtype (WT) (Homo sapiens, UniProt P00533)
Sequence (P00533 25-1210): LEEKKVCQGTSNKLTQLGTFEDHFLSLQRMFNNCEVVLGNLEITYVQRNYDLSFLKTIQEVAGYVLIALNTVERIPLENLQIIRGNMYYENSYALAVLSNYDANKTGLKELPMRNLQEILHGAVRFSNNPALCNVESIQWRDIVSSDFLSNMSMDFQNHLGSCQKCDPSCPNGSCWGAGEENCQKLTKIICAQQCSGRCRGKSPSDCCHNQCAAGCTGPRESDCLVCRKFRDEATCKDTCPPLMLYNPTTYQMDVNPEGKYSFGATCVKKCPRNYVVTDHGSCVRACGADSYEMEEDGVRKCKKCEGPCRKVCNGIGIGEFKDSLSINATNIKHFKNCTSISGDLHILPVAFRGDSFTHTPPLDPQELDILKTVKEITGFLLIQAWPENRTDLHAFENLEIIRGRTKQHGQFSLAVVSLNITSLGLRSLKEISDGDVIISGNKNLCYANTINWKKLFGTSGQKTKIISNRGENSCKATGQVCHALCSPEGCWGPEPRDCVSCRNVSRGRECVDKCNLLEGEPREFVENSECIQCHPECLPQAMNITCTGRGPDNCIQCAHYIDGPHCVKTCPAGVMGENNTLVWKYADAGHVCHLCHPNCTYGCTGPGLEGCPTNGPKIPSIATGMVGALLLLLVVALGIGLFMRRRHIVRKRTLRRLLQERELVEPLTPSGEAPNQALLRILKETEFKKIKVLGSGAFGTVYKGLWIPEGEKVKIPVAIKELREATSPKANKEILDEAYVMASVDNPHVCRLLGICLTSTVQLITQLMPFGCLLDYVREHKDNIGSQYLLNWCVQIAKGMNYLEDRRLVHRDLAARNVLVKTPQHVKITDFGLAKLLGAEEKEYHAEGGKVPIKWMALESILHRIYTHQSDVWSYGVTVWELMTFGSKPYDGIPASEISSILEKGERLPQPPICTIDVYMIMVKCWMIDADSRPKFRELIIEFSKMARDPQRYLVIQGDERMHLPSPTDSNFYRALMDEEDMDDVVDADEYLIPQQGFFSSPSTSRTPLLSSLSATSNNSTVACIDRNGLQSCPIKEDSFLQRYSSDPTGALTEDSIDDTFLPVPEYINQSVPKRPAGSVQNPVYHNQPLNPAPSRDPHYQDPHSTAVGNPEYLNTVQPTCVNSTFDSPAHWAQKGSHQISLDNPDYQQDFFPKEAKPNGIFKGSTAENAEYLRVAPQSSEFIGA
Assay: Biochemical EGFR kinase inhibition assay (Lance Ultra TR-FRET), wildtype
Conditions: IC50 WT (nM), 100 μM ATP
Listed here: items and their measured IC50.
Measured Endpoint: IC50 (nM)

> print(dat)
                                   molecule  value.operator  observed.value
1  Cn1cc(C#Cc2cnc(Nc3ccnc(-c4cnn(S(=O)(=O)C5CC5)c4)n3)cc2N2CCC(O)CC2)c(C(F)(F)F)n1               >           10000
2  CC(=O)N1CCC(n2cc(C#Cc3cnc(Nc4ccnc(-c5cnn(S(=O)(=O)C6CC6)c5)n4)cc3N3CCC(NCCN(C)C)CC3)cn2)CC1               =            1580
3  CC1(CO)CCN(c2cc(Nc3ccnc(-c4cnn(S(=O)(=O)C5CC5)c4)n3)ncc2C#CC2CCN(C(=O)C(F)(F)F)C2)CC1 (stereo not drawn)               =            5060
4  COC1(C)CCN(c2cc(Nc3ccnc(-c4cnn(S(=O)(=O)C5CC5)c4)n3)ncc2C#Cc2cccnc2)CC1               >           10000
5  Cn1cc(C#Cc2cnc(Nc3ccnc(-c4cnn(S(=O)(=O)C5CC5)c4)n3)cc2N2CCCC(O)CC2)cn1 (stereo not drawn)               >           10000
6  CC1(CO)CCN(c2cc(Nc3ccnc(-c4cnn(S(=O)(=O)C5CC5)c4)n3)ncc2C#CC2CCCO2)CC1 (stereo not drawn)               =            2900

###

Molecular target: EGFR L858R/C797S (Homo sapiens, UniProt P00533, C797S/L858R)
Assay: Biochemical EGFR kinase inhibition assay (Lance Ultra TR-FRET), double mutant L858R/C797S
Conditions: ATP at Km; read-out: IC50 L858R/C797S (nM), Km ATP
Measured Endpoint: IC50 (nM)

> print(dat)
                            chemical.string  observed.value
1  CN(C)CCC1CCN(c2cc(Nc3ccnc(-c4cnn(S(=O)(=O)C5CC5)c4)n3)ncc2C#Cc2cnn(CC(F)F)c2)CC1             0.6
2  O=S(=O)(C1CC1)n1cc(-c2nccc(Nc3cc(NC[C@H]4CC[C@H](O)CC4)c(C#Cc4cnn(C(F)F)c4)cn3)n2)cn1            21.3
3  CC1(CO)CCN(c2cc(Nc3ccnc(-c4cnn(S(=O)(=O)C5CC5)c4)n3)ncc2C#Cc2ccc(CN3CCOCC3)nc2)CC1               2
4  CC(C)(O)CC#Cc1cnc(Nc2ccnc(-c3cnn(S(=O)(=O)C4CC4)c3)n2)cc1N1CCC(C)(CO)CC1             1.7
5  CC1(CO)CCN(c2cc(Nc3ccnc(-c4cnn(S(=O)(=O)C5CC5)c4)n3)ncc2C#CCCF)CC1             1.5
6  CC1(CO)CCN(c2cc(Nc3ccnc(-c4cnn(CC(F)F)c4)n3)ncc2C#Cc2cnn(C(F)(F)F)c2)CC1             4.1
7  CN(C)CC1CCN(c2cc(Nc3ccnc(-c4cnn(S(=O)(=O)C5CC5)c4)n3)ncc2C#Cc2cnn(CC(F)F)c2)CC1            11.2

###

Target: EGFR L858R/C797S (Homo sapiens, UniProt P00533, C797S/L858R)
Experiment: Biochemical EGFR kinase inhibition assay (Lance Ultra TR-FRET), double mutant L858R/C797S
Settings: IC50 L858R/C797S (nM), 100 μM ATP
Measured Endpoint: IC50 (nM)

> print(dat)
                                   molecule  unit.label  observed.value
1  CC1(CO)CCN(c2cc(Nc3ccnc(-c4cnn(S(=O)(=O)C5CC5)c4)n3)ncc2C#Cc2cnn(C3COC3)c2)CC1 [Example 245]          nM             2.8
2  CN(C)C[C@H]1CC[C@@H](Nc2cc(Nc3ccnc(-c4cnn(S(=O)(=O)C5CC5)c4)n3)ncc2C#Cc2cnn(C(F)(F)F)c2)CC1 [Example 314]          nM            78.4
3  CS(=O)(=O)N1CCC(C#Cc2cnc(Nc3ccnc(-c4cnn(S(=O)(=O)C5CC5)c4)n3)cc2NC2CCC(O)CC2)C1 (stereo not drawn) [Example 399]          nM            28.2

###

Target: EGFR L858R/C797S (Homo sapiens, UniProt P00533, C797S/L858R)
Test: Biochemical EGFR kinase inhibition assay (Lance Ultra TR-FRET), double mutant L858R/C797S
Conditions: IC50 L858R/C797S (nM), 100 μM ATP
Measured Endpoint: log10(IC50) (log10 of the value in nM)

> print(dat)
                                    compound  observed.value
 1  O=S(=O)(C1CC1)n1cc(-c2nccc(Nc3cc(NC4CCC(O)CC4)c(C#CC4CCCO4)cn3)n2)cn1 (stereo not shown)            2.01
 2  CC(C)(O)[C@H]1CC[C@@H](Nc2cc(Nc3ccnc(-c4cnn(S(=O)(=O)C5CC5)c4)n3)ncc2C#Cc2cnn(CC(F)(F)F)c2)CC1            2.40
 3  CN(C)C(=O)c1ccc(C#Cc2cnc(Nc3ccnc(-c4cnn(S(=O)(=O)C5CC5)c4)n3)cc2N2CCC(C)(CO)CC2)cc1            0.76
 4  CC1(O)CCN(c2cc(Nc3ccnc(-c4cnn(S(=O)(=O)C5CC5)c4)n3)ncc2C#Cc2ncc(CN3CCOCC3)cn2)CC1            1.11
 5  Cn1cc(C#Cc2cnc(Nc3ccnc(-c4cnn(S(=O)(=O)C5CC5)c4)n3)cc2N2CCC(F)(CNCCF)CC2)cn1            1.94
 6  CN1CCN(Cc2ccc(C#Cc3cnc(Nc4ccnc(-c5cnn(S(=O)(=O)C6CC6)c5)n4)cc3N3CCC(C)(CO)CC3)cc2)CC1            0.34
 7  O=S(=O)(C1CC1)n1cc(-c2nccc(Nc3cc(N[C@H]4CCC[C@H](O)C4)c(C#Cc4ccc(CN5CCOCC5)cc4)cn3)n2)cn1            2.74
 8  Cn1cc(C#Cc2cnc(Nc3ccnc(-c4cnn(S(=O)(=O)C5CC5)c4)n3)cc2N2CCC(NCC(F)(F)F)CC2)cn1            1.61
 9  Cn1cc(C#Cc2cnc(Nc3ccnc(-c4cnn(S(=O)(=O)C5CC5)c4)n3)cc2N2CCC(NCC3CC3)CC2)cn1            2.19
10  O=S(=O)(C1CC1)n1cc(-c2nccc(Nc3cc(N[C@H]4CC[C@@H](O)CC4)c(C#Cc4cnn(C(F)(F)F)c4)cn3)n2)cn1            3.01
11  O=S(=O)(C1CC1)n1cc(-c2nccc(Nc3cc(N4CCC(CCO)CC4)c(C#Cc4cnn(C5CC5(F)F)c4)cn3)n2)cn1 (stereo not shown)            1.52
12  O=S(=O)(C1CC1)n1cc(-c2nccc(Nc3cc(N[C@H]4CCC[C@H](O)C4)c(C#Cc4cnn(C(F)(F)F)c4)cn3)n2)cn1            3.09
13  CN(C)Cc1cccc(C#Cc2cnc(Nc3ccnc(-c4cnn(S(=O)(=O)C5CC5)c4)n3)cc2N2CCC(C)(CO)CC2)c1            0.08

###

Biological target: EGFR Del19/C797S (Homo sapiens, UniProt P00533, C797S/DEL746-750)
Sequence (P00533 with tags, fused parts or gaps DEL746-750/C797S): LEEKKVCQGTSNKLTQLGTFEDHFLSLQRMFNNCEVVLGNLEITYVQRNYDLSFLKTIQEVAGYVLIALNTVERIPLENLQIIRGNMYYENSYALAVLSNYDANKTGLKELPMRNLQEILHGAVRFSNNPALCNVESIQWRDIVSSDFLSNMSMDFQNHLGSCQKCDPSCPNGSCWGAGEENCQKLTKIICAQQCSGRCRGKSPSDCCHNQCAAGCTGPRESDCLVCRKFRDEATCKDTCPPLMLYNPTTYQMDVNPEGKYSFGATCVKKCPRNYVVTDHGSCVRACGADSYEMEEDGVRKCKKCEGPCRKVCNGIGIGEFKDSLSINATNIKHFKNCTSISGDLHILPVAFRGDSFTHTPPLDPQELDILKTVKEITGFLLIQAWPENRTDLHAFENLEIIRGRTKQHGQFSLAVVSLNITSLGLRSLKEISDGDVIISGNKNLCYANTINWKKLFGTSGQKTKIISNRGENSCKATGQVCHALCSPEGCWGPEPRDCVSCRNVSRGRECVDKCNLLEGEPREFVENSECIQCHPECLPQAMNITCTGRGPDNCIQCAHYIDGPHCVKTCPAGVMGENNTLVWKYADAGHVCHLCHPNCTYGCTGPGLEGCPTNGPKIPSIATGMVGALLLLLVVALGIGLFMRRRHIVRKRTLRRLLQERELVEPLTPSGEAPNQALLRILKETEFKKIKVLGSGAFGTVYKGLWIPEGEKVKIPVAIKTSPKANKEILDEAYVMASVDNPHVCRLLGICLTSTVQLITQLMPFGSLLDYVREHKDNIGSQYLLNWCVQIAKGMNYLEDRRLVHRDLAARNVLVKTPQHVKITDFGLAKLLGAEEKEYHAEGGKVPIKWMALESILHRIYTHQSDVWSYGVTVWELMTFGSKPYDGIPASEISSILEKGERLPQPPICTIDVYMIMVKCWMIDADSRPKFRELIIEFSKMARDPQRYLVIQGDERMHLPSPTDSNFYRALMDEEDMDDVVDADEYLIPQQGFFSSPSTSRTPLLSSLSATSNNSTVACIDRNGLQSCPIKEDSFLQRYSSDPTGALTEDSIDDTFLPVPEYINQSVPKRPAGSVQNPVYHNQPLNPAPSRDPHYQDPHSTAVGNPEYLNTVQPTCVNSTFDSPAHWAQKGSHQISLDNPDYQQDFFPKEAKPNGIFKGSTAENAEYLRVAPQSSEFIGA
Test: Biochemical EGFR kinase inhibition assay (Lance Ultra TR-FRET), double mutant del19/C797S
Details: IC50 Del19/C797S (nM), 100 μM ATP
Listed here: items and their measured IC50.
Measured Endpoint: IC50 (nM)

> print(dat)
                                    compound  observed.value
 1  CN(C)C(=O)c1cccc(C#Cc2cnc(Nc3ccnc(-c4cnn(S(=O)(=O)C5CC5)c4)n3)cc2N2CCC(C)(CO)CC2)n1             1.8
 2  CC(C)(O)[C@H]1CC[C@@H](Nc2cc(Nc3ccnc(-c4cnn(S(=O)(=O)C5CC5)c4)n3)ncc2C#Cc2ccc(CN3CCOCC3)cc2)CC1            58.4
 3  CN(C)CCC1CCCN(c2cc(Nc3ccnc(-c4cnn(S(=O)(=O)C5CC5)c4)n3)ncc2C#Cc2cnn(CCF)c2)C1 (stereo not shown)             1.4
 4  CC1(O)CCN(c2cc(Nc3ccnc(-c4cnn(S(=O)(=O)C5CC5)c4)n3)ncc2C#CC2CCO[C@H]2C(F)(F)F)CC1 (stereo partly shown)             7.9
 5  CN(C)CC1(C)CCN(c2cc(Nc3ccnc(-c4cnn(S(=O)(=O)C5CC5)c4)n3)ncc2C#CC2CCN(C(=O)C(F)(F)F)C2)CC1 (stereo not shown)             3.3
 6  O=S(=O)(C1CC1)n1cc(-c2nccc(Nc3cc(NC4CCC(O)CC4)c(C#Cc4cnn(C5CC5(F)F)c4)cn3)n2)cn1 (stereo not shown)               7
 7  CC1(O)CCC(Nc2cc(Nc3ccnc(-c4cnn(S(=O)(=O)C5CC5)c4)n3)ncc2C#Cc2cnn(C3CC3(F)F)c2)CC1 (stereo not shown)            19.2
 8  CC1(CO)CCN(c2cc(Nc3ccnc(-c4cnn(S(=O)(=O)C5CC5)c4)n3)ncc2C#Cc2cnn(CC3CC3)c2)CC1             2.2
 9  CN(C)C(=O)c1ccc(C#Cc2cnc(Nc3ccnc(-c4cnn(S(=O)(=O)C5CC5)c4)n3)cc2N2CCC(C)(CO)CC2)cc1             1.1
10  CN(C)CCn1cc(C#Cc2cnc(Nc3ccnc(-c4cnn(S(=O)(=O)C5CC5)c4)n3)cc2N2CCC(NCCF)CC2)cn1             0.9
11  CC1(CO)CCN(c2cc(Nc3ccnc(-c4cnn(S(=O)(=O)C5CC5)c4)n3)ncc2C#CC2CCOC2)CC1 (stereo not shown)             0.8
12  CC1(CO)CCN(c2cc(Nc3ccnc(-c4cnn(S(=O)(=O)C5CC5)c4)n3)ncc2C#Cc2cnn(C3CC3)c2)CC1             1.6
13  CC1(CO)CCN(c2cc(Nc3ccnc(-c4cnn(S(=O)(=O)C5CC5)c4)n3)ncc2C#CC2(O)CCCCC2)CC1            17.2
